Tested on: Chlorella protothecoides
MEASUREMENT PROTOCOL: Effect of hormone concentrations on growth rate of Chlorella protothecoides, heterotrophic
Format: cell-based
RUN PARAMETERS: 0.01 ng, 48 hours, control 1.54
READOUT NAME: growth rate
Number only, no unit.

In the examples that follow, each entry is paired with its recorded growth rate.
O=C(O)Cc1c[nH]c2ccccc12 : 1.62
O=C(O)Cc1cccc2ccccc12 : 1.66
c1coc(CNc2ncnc3[nH]cnc23)c1 : 1.60
O=C(O)COc1ccc(Cl)cc1Cl : 1.40
C=C1C[C@]23C[C@@]1(O)CC[C@H]2[C@@]12C=C[C@H](O)[C@@](C)(C(=O)O1)[C@H]2[C@@H]3C(=O)O : 1.52

Now consider a different compound.
State the recorded growth rate for this entry: "c1ccc(CNc2ncnc3nc[nH]c23)cc1"
1.48

Reference source: patent US20210307272A1
